# SYSTEM NAME: 3% milk powder (negative control)
# EXPERIMENTAL PROTOCOL: phage ELISA, 3% milk powder coated (negative control), anti-M13(HRP)
MEASURED PARAMETER: OD450 (OD450)
Write the answer as a number in OD450, unit excluded.

[[record]]
binder = "V14 (VHH, Purified with C-terminal GGGGS-6×His) VHH: QLQLVESGGGSVQPGGSLRLSCEVSGRTFTSYTMGWFRQAPGKEREFVVAISKGGYKYNTVSLEARFTISKDNTKNTVYLQMNSLKPEDTAVYYCAGTRAYGSSRLRLANTYEYWGQGTQVTVSS"
measured_parameter = "OD450"
result_unit = "OD450"
experimental_value = 0.0252


Quick check: OD450 of V22 (VHH) VHH: QLQLVESGGGSVQPGGSLRLSCEVSGRTFSSYTMGWFRQAPGKEREFVVAISKGGYKYDSVSLEARFTISKDNTKNTVYLQMNSLKPEDTAVYYCAATRAYGSSRLKLADTYEYWGQGTQVTVSS ?
0.0353

Where these numbers come from: patent EP4582447A1
